# Experiment: molar heat capacity at constant pressure
# Measurement Parameters: 298.15 K; 101.33 kPa; Liquid; Flow calorimetry
Listing: molar heat capacity at constant pressure of selected molecules
Entry rule: numbers only, all in J/K/mol.

Consider the worked cases shown below.
Cc1cccc(C)c1; 181.38
CC(C)c1ccccc1; 214.75
Cc1ccc(C)c(C)c1; 213.02

Query string: Fill in: molar heat capacity at constant pressure of `Cc1ccc(C)cc1` is ___
Result string: 181.73

Query string: So what does the record say about molar heat capacity at constant pressure for `N#Cc1ccccc1` ?
Result string: 166.41

Query string: Reported molar heat capacity at constant pressure for `CCc1ccccc1` : what is it?
Result string: 185.44

Query string: Requested field: molar heat capacity at constant pressure. Item: `Cc1ccccc1C`
Result string: 187.28

Query string: What value of measured molar heat capacity at constant pressure is listed for `Cc1cc(C)cc(C)c1` ?
Result string: 207.43

Query string: Param item = `COc1ccccc1` ; retrieve measured molar heat capacity at constant pressure.
Result string: 191.54
